Recorded values, source patent US20060235035A1.

- EXPERIMENTAL_SYSTEM: human MCH-1 receptor (Homo sapiens)
- Construct: expressed in transfected cells; host or cells: transiently transfected COS-7 cells or stably transfected CHO cells (pcDNA3.1)
- METHOD_SUMMARY: Phosphatidylinositol assay (IP3)
- Type: cell-based
- CONDITION_CONTEXT: phosphatidylinositol turnover stimulated by 10 nM MCH; COS-7 or CHO cells expressing human MCH-1 receptor
We label by threshold. Values of IC50 strictly beneath 300 nM are Yes. Values of 300 nM and up are No.

Use the examples below as a reference point.
                                 mol_smiles  answer_label
0  CCN(CC)CCNC(=O)c1ccc(NC(=O)Nc2ccc(OC(F)(F)F)cc2)cc1           Yes
1  COc1cc(NC(=O)Nc2ccc(Oc3ccc(F)cc3)cc2)ccc1C(=O)NCCCN1CCOCC1            No
2  COc1cc(NC(=O)Nc2ccc(Oc3ccccc3)cc2)ccc1C(=O)NC1CCN(Cc2ccccc2)CC1            No
3  COc1cc(NC(=O)Nc2cccc(Nc3ccccc3)c2)ccc1C(=O)NCCCN1CCCCC1           Yes
4  COc1cc(NC(=O)Nc2ccc(Oc3ccccc3)cc2)ccc1C(=O)NCCCN1CCCCC1           Yes

Strictly below 300 nM in IC50? COc1cc(NC(=O)Nc2ccc(Oc3ccccc3)cc2)ccc1C(=O)NCCCN1CCOCC1
No

Please determine if CCN(CC)CCNC(=O)c1ccc(N(C)C(=O)Nc2ccc(Oc3ccccc3)cc2)cc1OC is below 300 nM in terms of IC50.
Yes

---

So I've got a bunch of compounds here, and I need their IC50 values.
- EXPERIMENTAL_SYSTEM: human MCH-1 receptor (Homo sapiens, UniProt Q99705)
- Construct: expressed in transfected cells; host or cells: transiently transfected COS-7 cells or stably transfected CHO cells (pcDNA3.1)
- Sequence (Q99705 whole entry): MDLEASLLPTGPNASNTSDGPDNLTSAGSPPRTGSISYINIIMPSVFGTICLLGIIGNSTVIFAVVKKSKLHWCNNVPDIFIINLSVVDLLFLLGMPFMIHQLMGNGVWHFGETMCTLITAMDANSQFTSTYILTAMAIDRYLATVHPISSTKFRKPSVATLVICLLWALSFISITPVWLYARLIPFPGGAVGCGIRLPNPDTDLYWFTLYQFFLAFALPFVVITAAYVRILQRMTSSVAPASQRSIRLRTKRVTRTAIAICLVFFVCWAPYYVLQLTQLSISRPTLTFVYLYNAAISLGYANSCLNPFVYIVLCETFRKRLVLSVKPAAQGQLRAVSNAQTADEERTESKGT
- METHOD_SUMMARY: Radioligand binding assay ([125I]-MCH competition, whole cells)
- CONDITION_CONTEXT: competition with [125I]-MCH; COS-7 or CHO cells expressing human MCH-1 receptor
Give bare numbers, in nM.

Some solved cases for reference:
>>> df
                                   compound  value_observed
0  COc1cc(NC(=O)Nc2ccc(Oc3ccc(F)cc3)cc2)ccc1C(=O)NCCCN1CCOCC1 [Ex 135]             450
1  CCN(CC)CCNC(=O)c1ccc(NC(=O)Nc2ccc(OC(F)(F)F)cc2)cc1OC [Ex 48]              96
2  COc1cc(NC(=O)Nc2ccc(Oc3ccccc3)cc2)c(F)cc1C(=O)NCCCN1CCCCC1 [Ex 186]            1000

Next, consider the following compound.
State its IC50 on human MCH-1 receptor (Homo sapiens, UniProt Q99705): COc1cc(NC(=O)Nc2ccc(Oc3ccccc3)cc2)ccc1C(=O)NCCN(C)C [Ex 8]
380

---

What IC50 was measured for each of the following?
- EXPERIMENTAL_SYSTEM: human MCH-1 receptor (Homo sapiens)
- Construct: expressed in transfected cells; host or cells: transiently transfected COS-7 cells or stably transfected CHO cells (pcDNA3.1)
- METHOD_SUMMARY: Radioligand binding assay ([125I]-MCH competition, whole cells)
- CONDITION_CONTEXT: competition with [125I]-MCH; COS-7 or CHO cells expressing human MCH-1 receptor
Answers are plain numbers, in nM.

Here are 3 compounds together with their reported answers.
>>> print(df.to_string())
                                   compound                  experimental_system  value_observed
0  COc1cc(NC(=O)Nc2ccc(Oc3ccccn3)cc2)ccc1C(=O)NCCCN1CCOCC1 [Ex 136]  human MCH-1 receptor (Homo sapiens)            4450
1  COc1cc(NC(=O)Nc2cccc(Oc3ccccc3)c2)ccc1C(=O)NCCCN1CCOCC1 [Ex 121]  human MCH-1 receptor (Homo sapiens)              74
2  CCN(CC)CCNC(=O)c1ccc(NC(=O)Nc2ccc(OC(F)(F)F)cc2)cc1 [Ex 47]  human MCH-1 receptor (Homo sapiens)              70

Now consider a different compound.
Form field - read-out: IC50; system: human MCH-1 receptor (Homo sapiens); submitted item: COc1cc(NC(=O)Nc2ccc(Oc3ccccc3)cc2)ccc1C(=O)NCCCN1CCOCC1 [Ex 23]
210
